# testName: Tmax in C57BL/6J mouse plasma at 25 mg/kg, po administered as single dose by mass spectrometry based UHPLC analysis
# Format: ADME, organism-based
The following molecules are listed with their measured Tmax values.
# number then unit; no other words

C[C@@H]1COCCN1c1nc(-c2cnc(N)cc2C(F)F)nc(N2[C@H](C)COC[C@@H]2C)n1; 12 min

// switching to the query molecule
Item under review: CNC(=O)c1cccc(-c2ccc3c(N4CCOC[C@@H]4C)nc(N4CCOC[C@@H]4C)nc3n2)c1 . Reported Tmax? 30 min

====

# assayTarget: Phosphatidylinositol 4,5-bisphosphate 3-kinase catalytic subunit gamma isoform (Homo sapiens)
# Sequence (P48736 whole entry, the tested form may be a part, canonical isoform): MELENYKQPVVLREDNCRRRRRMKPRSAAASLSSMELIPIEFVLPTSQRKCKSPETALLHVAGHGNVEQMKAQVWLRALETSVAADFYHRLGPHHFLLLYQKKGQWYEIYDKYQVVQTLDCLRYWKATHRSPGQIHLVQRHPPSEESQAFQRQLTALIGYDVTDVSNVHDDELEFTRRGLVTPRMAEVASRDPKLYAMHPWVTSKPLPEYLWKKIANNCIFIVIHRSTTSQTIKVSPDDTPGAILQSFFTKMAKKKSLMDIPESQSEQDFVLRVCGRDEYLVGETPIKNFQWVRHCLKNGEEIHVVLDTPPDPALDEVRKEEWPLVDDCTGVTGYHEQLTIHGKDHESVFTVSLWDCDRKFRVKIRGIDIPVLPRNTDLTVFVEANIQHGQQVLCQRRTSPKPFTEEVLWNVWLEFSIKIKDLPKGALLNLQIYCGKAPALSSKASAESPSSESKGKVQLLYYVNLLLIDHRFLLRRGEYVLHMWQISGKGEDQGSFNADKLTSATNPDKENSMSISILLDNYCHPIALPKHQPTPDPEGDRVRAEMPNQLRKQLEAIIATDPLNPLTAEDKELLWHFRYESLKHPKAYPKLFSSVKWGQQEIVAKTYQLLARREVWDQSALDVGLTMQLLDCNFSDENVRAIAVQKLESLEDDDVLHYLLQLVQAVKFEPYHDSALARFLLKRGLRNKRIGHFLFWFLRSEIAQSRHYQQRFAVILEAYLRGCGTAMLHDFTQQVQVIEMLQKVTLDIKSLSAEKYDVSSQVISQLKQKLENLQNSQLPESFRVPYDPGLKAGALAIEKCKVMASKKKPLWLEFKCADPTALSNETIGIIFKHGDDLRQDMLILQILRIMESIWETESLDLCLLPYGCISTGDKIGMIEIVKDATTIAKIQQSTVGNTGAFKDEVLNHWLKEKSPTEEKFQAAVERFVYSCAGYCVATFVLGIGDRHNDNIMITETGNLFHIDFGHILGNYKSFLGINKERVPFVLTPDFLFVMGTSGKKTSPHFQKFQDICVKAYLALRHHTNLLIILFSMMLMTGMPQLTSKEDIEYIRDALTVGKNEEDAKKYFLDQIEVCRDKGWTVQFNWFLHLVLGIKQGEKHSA
# testName: Binding affinity to wild-type human partial length PIK3CG (S144 to A1102 residues) expressed in HEK293 cells measured after 1 hr by Kinomescan method
propertyMeasured: Kd (µM)
Reply with just the number (in µM).

C[C@@H]1COCCN1c1nc(-c2cnc(N)cc2C(F)F)nc(N2[C@H](C)COC[C@@H]2C)n1; 1.35

Proceed to the following item.
Sample C[C@@H]1COCCN1c1nc(-c2cnc(N)cc2C(F)F)nc(N2CCOCC2(C)C)n1 — what was its Kd? 0.595

====

# testName: Tmax in C57BL/6J mouse plasma at 10 mg/kg, po administered as single dose by mass spectrometry based UHPLC analysis
# Format: ADME, organism-based
Below is a list of entries, each paired with its recorded Tmax value.
State just the number; it will be interpreted in min.

C[C@@H]1COCCN1c1nc(-c2cnc(N)cc2C(F)F)nc(N2[C@H](C)COC[C@@H]2C)n1; 30

Name the recorded Tmax for CO[C@H]1C[C@@H]2CC[C@@H](C)[C@@](O)(O2)C(=O)C(=O)N2CCCC[C@H]2C(=O)O[C@H]([C@H](C)C[C@@H]2CC[C@@H](OCCO)[C@H](OC)C2)CC(=O)[C@H](C)/C=C(\C)[C@@H](O)[C@@H](OC)C(=O)[C@H](C)C[C@H](C)/C=C/C=C/C=C/1C [EVEROLIMUS] . 30

====

# testName: Clearance in C57BL/6J mouse plasma at 10 mg/kg, po administered once a day for 4 consecutive days by mass spectrometry based UHPLC analysis
# Type: ADME, organism-based
# conditionSet: time 4 day
propertyMeasured: CL/F (mL/min/kg)
Give a bare numeral; the unit mL/min/kg is implied.

CO[C@H]1C[C@@H]2CC[C@@H](C)[C@@](O)(O2)C(=O)C(=O)N2CCCC[C@H]2C(=O)O[C@H]([C@H](C)C[C@@H]2CC[C@@H](OCCO)[C@H](OC)C2)CC(=O)[C@H](C)/C=C(\C)[C@@H](O)[C@@H](OC)C(=O)[C@H](C)C[C@H](C)/C=C/C=C/C=C/1C; 3.75

Now turn to the next compound.
What value of measured CL/F is listed for C[C@@H]1COCCN1c1nc(-c2cnc(N)cc2C(F)F)nc(N2[C@H](C)COC[C@@H]2C)n1 ? 64.9

====

# testName: Clearance in C57BL/6J mouse plasma at 10 mg/kg, po administered as single dose by mass spectrometry based UHPLC analysis
# Format: ADME, organism-based
propertyMeasured: CL/F (mL/min/kg)
Numeric only. Scale: mL/min/kg

C[C@@H]1COCCN1c1nc(-c2cnc(N)cc2C(F)F)nc(N2[C@H](C)COC[C@@H]2C)n1; 56.6

Query compound follows.
Please give the measured CL/F for this compound: CO[C@H]1C[C@@H]2CC[C@@H](C)[C@@](O)(O2)C(=O)C(=O)N2CCCC[C@H]2C(=O)O[C@H]([C@H](C)C[C@@H]2CC[C@@H](OCCO)[C@H](OC)C2)CC(=O)[C@H](C)/C=C(\C)[C@@H](O)[C@@H](OC)C(=O)[C@H](C)C[C@H](C)/C=C/C=C/C=C/1C 4.6

====

# testName: Metabolic stability in human hepatocytes assessed as parent compound remaining at 5 uM incubated for 3 hrs by LC-MS analysis
# Type: ADME, cell-based, Hepatocyte
# conditionSet: read-out: Stabilty
Quick list: remaining at 3 h, 5 µM per entry.
Supply the numeric figure in %, leaving out any unit text.

Nc1cc(C(F)F)c(-c2nc(N3C4CCC3COC4)nc(N3C4CCC3COC4)n2)cn1; 27.8

Looking for the measured remaining at 3 h, 5 µM of C[C@@H]1COCCN1c1nc(-c2cnc(N)cc2C(F)F)nc(N2[C@H](C)COC[C@@H]2C)n1 , can you help? 44

====

# testName: Elimination half life in C57BL/6J mouse plasma at 25 mg/kg, po administered as single dose by mass spectrometry based UHPLC analysis
# Type: ADME, organism-based
# conditionSet: read-out: beta t1/2 (converted)
In this section, each of the molecules is paired with its reported half-life.
Please state the figure in h; there is no need to write the unit.

Which half-life value belongs to CNC(=O)c1cccc(-c2ccc3c(N4CCOC[C@@H]4C)nc(N4CCOC[C@@H]4C)nc3n2)c1 ? 7.5

# iterate: C[C@@H]1COCCN1c1nc(-c2cnc(N)cc2C(F)F)nc(N2[C@H](C)COC[C@@H]2C)n1 2.4

====

Quick reference for pKd among some compounds
# assayTarget: Phosphatidylinositol 4,5-bisphosphate 3-kinase catalytic subunit alpha isoform (Homo sapiens)
# Sequence (P42336 whole entry, the tested form may be a part, canonical isoform): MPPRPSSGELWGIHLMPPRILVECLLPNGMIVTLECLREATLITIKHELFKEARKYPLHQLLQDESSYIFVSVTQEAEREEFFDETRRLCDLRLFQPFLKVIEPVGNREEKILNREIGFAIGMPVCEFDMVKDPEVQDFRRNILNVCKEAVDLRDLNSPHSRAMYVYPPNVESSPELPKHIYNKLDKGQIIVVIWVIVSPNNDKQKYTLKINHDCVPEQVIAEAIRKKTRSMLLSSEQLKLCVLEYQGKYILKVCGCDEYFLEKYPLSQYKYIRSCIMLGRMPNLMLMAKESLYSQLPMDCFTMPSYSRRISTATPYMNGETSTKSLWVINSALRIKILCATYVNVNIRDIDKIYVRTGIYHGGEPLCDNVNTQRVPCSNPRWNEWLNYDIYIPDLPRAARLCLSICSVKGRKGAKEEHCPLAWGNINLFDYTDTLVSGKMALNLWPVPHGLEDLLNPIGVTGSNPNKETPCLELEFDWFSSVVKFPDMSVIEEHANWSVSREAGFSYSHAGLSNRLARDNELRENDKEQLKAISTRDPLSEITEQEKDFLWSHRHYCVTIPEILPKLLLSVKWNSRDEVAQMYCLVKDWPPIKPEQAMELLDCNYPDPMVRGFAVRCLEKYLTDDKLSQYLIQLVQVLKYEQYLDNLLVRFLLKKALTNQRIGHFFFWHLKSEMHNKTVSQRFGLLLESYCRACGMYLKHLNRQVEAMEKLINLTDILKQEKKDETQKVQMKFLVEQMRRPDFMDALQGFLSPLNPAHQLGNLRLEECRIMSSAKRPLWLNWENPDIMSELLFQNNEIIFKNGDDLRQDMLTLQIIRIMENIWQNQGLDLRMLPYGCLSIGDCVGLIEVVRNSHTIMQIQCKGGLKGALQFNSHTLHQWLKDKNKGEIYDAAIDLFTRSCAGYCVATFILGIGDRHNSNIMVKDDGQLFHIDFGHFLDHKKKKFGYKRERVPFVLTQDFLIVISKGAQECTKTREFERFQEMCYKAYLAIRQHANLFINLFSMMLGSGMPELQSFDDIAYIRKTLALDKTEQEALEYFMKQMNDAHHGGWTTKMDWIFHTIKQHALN
# testName: Binding affinity to wild-type human partial length PIK3CA (R108 to N1068 residues) expressed in HEK293 cells measured after 1 hr by Kinomescan method
Hey, just a heads up that pKd is the negative log base 10 of the concentration in molar.

C[C@@H]1COCCN1c1nc(-c2cnc(N)cc2C(F)F)nc(N2CCOCC2(C)C)n1; 7.09

Now for a further compound.
Need pKd, item C[C@@H]1COCCN1c1nc(-c2cnc(N)cc2C(F)F)nc(N2[C@H](C)COC[C@@H]2C)n1 6.96

====

# assayTarget: Phosphatidylinositol 4,5-bisphosphate 3-kinase catalytic subunit delta isoform (Homo sapiens)
# Sequence (O00329 whole entry, the tested form may be a part, canonical isoform): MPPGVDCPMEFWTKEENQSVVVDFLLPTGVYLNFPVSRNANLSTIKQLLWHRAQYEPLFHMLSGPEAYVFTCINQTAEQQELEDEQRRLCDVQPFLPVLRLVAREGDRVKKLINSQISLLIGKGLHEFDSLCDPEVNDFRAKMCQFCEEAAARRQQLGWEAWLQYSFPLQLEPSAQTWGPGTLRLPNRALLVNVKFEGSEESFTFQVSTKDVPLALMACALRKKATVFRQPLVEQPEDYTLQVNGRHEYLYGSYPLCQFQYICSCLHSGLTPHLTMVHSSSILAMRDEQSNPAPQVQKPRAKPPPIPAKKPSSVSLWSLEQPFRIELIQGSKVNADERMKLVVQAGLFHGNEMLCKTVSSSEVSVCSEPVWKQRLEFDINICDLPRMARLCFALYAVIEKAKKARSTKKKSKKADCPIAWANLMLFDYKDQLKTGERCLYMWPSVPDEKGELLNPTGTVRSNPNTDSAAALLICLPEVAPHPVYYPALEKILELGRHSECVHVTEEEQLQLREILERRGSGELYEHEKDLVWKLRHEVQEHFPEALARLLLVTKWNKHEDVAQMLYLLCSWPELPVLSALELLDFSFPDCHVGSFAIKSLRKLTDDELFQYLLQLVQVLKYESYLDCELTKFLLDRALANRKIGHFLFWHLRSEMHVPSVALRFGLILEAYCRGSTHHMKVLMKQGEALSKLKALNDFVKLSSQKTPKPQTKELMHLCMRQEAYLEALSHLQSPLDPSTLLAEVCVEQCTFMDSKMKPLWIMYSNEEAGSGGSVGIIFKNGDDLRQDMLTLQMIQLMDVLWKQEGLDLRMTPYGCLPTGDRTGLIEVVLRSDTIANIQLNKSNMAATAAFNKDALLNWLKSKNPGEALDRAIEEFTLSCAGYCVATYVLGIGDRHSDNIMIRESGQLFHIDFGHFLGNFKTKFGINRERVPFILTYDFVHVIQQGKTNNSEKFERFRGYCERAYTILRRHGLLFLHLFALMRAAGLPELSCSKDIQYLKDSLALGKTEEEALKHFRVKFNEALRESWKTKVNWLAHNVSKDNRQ
# testName: Binding affinity to wild-type human partial length PIK3CD (R108 to Q1044 residues) expressed in HEK293 cells measured after 1 hr by Kinomescan method
propertyMeasured: pKd
Scale explanation: pKd corresponds to minus log10 of a concentration expressed in moles per litre.

C[C@@H]1COCCN1c1nc(-c2cnc(N)cc2C(F)F)nc(N2[C@H](C)COC[C@@H]2C)n1; 5.46

What measured pKd goes with C[C@@H]1COCCN1c1nc(-c2cnc(N)cc2C(F)F)nc(N2CCOCC2(C)C)n1 ? 5.61

====

# assayTarget: CYP1A1 (Homo sapiens, UniProt P04798)
# Sequence (P04798 whole entry): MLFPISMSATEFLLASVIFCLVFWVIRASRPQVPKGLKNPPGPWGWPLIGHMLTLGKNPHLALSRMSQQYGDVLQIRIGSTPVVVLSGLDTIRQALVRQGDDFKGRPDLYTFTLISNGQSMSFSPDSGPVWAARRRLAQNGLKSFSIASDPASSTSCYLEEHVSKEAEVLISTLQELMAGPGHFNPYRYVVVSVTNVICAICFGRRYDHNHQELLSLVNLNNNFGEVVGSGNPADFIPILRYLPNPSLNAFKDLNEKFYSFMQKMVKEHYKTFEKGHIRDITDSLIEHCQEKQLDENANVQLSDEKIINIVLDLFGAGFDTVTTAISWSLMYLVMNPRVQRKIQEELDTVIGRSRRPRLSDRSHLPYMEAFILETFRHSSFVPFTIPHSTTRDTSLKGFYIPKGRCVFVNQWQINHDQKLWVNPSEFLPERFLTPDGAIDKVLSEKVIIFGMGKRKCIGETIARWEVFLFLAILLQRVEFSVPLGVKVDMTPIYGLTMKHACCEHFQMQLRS
# testName: Drug metabolism assessed as human recombinant CYP1A1 expressed in baculovirus infected insect cells-mediated metabolism by measuring parent compound remaining at 1 uM incubated for 60 mins in presence of NADPH regenerating system by UHPLC based LC-MS analysis
# Assay type: ADME
# conditionSet: read-out: Stabilty
propertyMeasured: remaining at 1 h, 1 µM (%)
Report the value in % with no unit label.

C[C@@H]1COCCN1c1nc(-c2cnc(N)cc2C(F)F)nc(N2CCOCC2(C)C)n1; 1.9

Request the reported remaining at 1 h, 1 µM associated with C[C@@H]1COCCN1c1nc(-c2cnc(N)cc2C(F)F)nc(N2[C@H](C)COC[C@@H]2C)n1 45.1

====

# testName: Intrinsic clearance in Beagle dog hepatocytes assessed per million cells at 5 uM incubated for 3 hrs by LC-MS analysis
# Format: ADME, cell-based, Canis lupus familiaris, Hepatocyte
# conditionSet: read-out: CLH
propertyMeasured: hepatocyte CLint at 5 µM (µL/min/1e6 cells)
Respond with the bare value in µL/min/1e6 cells.

Need hepatocyte CLint at 5 µM, item C[C@@H]1COCCN1c1nc(-c2cnc(N)cc2C(F)F)nc(N2[C@H](C)COC[C@@H]2C)n1 1.8

====

# testName: Cmax in C57BL/6J mouse brain at 25 mg/kg, po administered as single dose by mass spectrometry based UHPLC analysis
# Type: ADME, organism-based
# Design: route oral, dose 25 mg/kg
Each record here notes measured Cmax.
Please state the figure in ng/mL; there is no need to write the unit.

Recorded Cmax of CNC(=O)c1cccc(-c2ccc3c(N4CCOC[C@@H]4C)nc(N4CCOC[C@@H]4C)nc3n2)c1 [VISTUSERTIB] , please. 286

Queued: C[C@@H]1COCCN1c1nc(-c2cnc(N)cc2C(F)F)nc(N2[C@H](C)COC[C@@H]2C)n1 3340
